# Enzyme Activity Endpoint Assay (purified): Fc annotations
Biological target: pooled human IgG (human IgG1,2,3 and 4)
Give the value in ng/µL but do not write ng/µL after it.

protein	measurement
PRT-296 (protein) MVTSVWTKGVTPPADFTQGEDVFHAPYVANQGWYDITKEFNGKDDLLCGAATAGNMLHWWFDQNKEYIEAYLKKHPEKQKIMFGDQELLDVRKAINTKGSQKNSELFNYFRDKAFPNLSARRLGVMPDLVLDMFINGYYLNVTKTQTTDVNRTYQEKDKRGGIFDAVFTRGDQSKLLTSRHDFKEKGLKEISDLIKQELTEGKALGLSHTYANVRIGHVINLWGADFDSDGNLKAIYVTDSDSNASIGMKKYGVGVNSAGKVAISAKEIKEDNIGAQVLGLFTLSTGQDIWNQTN	443

Proceeding to the next protein to report its Enzyme Activity Endpoint Assay (purified): Fc.
Input line: Need Enzyme Activity Endpoint Assay (purified): Fc, item PRT-345 (protein) MTITSVWTKGVTPPTPEDFRENNEDVLHAPYLANQGWYDITKAFDGKDNLLCGAATAGNMLHWWFDQNKEEIERYLKKHPEKQKIIFNNQELFDVKAAIDTKDSQTNSKLFDYFRDKAFPNLSARQLGVMPDLVLDMFINGYYLNLGKTQSTDVNRPYQDKDKRGGIFDAVFTRGDQTTLLTARHDLKNKGLNEISDLIKQELTEGKALALSHTYANVSINHVINLWGADFDAEGELEAIYVTDSDANPSIGMKKYFVGRNAHGKVAISAKKIEGDNIGAQVLGLFTLSTGQDIWQKLS
Output line: 248
